IC50 (µg/ml) with constrains listing for selected binders.
measured on: HIV Env of isolate QH0692.42 (clade B) (HIV)
protocol notes: cell-based or functional assay
property name: IC50 (µg/ml) with constrains

binder	property name	result value
PGDM1400 (antibody, V domains shown) VH: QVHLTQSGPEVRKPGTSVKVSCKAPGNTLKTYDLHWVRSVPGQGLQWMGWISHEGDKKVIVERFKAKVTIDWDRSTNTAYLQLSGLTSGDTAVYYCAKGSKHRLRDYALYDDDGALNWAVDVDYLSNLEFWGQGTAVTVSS VL: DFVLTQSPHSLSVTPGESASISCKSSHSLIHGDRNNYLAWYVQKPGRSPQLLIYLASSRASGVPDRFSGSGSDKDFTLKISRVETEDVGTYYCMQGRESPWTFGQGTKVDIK	IC50 (µg/ml) with constrains	> 100 µg/mL
ePGDM9 (antibody, V domains shown) VH: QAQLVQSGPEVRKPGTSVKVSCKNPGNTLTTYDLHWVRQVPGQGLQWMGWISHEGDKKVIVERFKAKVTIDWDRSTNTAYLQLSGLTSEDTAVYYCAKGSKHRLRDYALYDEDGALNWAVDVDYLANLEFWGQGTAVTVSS VL: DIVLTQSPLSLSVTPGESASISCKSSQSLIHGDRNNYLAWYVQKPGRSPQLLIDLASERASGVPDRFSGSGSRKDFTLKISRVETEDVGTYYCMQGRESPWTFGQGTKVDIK	IC50 (µg/ml) with constrains	> 100 µg/mL
ePGDM5 (antibody, V domains shown) VH: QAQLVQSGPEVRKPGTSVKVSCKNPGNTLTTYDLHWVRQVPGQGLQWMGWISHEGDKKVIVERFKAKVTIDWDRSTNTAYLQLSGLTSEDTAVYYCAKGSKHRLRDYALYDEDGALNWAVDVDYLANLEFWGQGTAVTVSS VL: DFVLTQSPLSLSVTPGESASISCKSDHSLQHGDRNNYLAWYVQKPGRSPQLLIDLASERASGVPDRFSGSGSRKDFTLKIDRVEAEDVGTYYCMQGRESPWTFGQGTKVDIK	IC50 (µg/ml) with constrains	> 100 µg/mL
ePGDM13 (antibody, V domains shown) VH: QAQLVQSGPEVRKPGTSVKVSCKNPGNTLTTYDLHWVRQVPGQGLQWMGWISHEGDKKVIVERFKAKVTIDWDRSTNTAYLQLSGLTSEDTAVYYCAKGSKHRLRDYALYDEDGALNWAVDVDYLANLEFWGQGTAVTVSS VL: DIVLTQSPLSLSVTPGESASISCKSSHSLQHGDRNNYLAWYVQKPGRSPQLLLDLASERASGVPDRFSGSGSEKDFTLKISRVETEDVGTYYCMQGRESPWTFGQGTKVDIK	IC50 (µg/ml) with constrains	> 100 µg/mL

Data origin, for the record: patent US20230134571A1
